- ASSAYED SYSTEM: Zinc finger protein mex-5 (Caenorhabditis elegans) (UniProt Q9XUB2)
- Sequence (Q9XUB2 whole entry, looked up): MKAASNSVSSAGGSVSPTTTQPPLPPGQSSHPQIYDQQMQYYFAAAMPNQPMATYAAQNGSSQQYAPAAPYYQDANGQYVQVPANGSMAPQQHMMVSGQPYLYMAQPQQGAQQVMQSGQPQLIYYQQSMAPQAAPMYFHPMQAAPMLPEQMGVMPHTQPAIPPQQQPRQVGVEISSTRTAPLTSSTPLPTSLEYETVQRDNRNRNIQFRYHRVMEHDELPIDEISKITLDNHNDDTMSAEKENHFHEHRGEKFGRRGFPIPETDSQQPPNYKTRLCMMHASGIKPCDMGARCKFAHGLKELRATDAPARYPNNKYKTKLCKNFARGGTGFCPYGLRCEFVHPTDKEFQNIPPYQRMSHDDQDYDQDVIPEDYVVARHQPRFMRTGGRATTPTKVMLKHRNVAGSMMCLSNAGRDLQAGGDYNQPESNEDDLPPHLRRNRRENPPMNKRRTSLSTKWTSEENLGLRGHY
- ASSAY SUMMARY: MEX-5 RNA-binding inhibition confirmation – biochemical, C. elegans, fluorescence polarization, dose retest (AID 449745);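 also: potency is for blocking Mex-5 binding to labeled TCR2 RNA like unlabeled competitor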
- APPLIED CONDITIONS: Mex-5 / TCR-2 RNA binding
Inconclusive results are not listed. The source made the active and inactive calls. No rule for the calls is given here.
Possible outcomes: t for active, f for inactive

>  <MOLECULE>
N#C/C(=C\c1cn(-c2ccccc2)nc1-c1cc2ccccc2o1)c1nc2ccccc2[nH]1

>  <CATEGORY LABEL>
f

$$$$
>  <MOLECULE>
CCOC(=O)NC(=O)COC(=O)c1ccc(Sc2ncn[nH]2)c([N+](=O)[O-])c1

>  <CATEGORY LABEL>
t

$$$$
>  <MOLECULE>
O=c1c2ccccc2nc(/C=C/c2ccc([N+](=O)[O-])o2)n1-c1ccc(O)cc1

>  <CATEGORY LABEL>
f

$$$$
>  <MOLECULE>
Nc1c(C(=O)C2CC2)sc2nc(-c3cccs3)cc(C(F)(F)F)c12

>  <CATEGORY LABEL>
f

$$$$
>  <MOLECULE>
Cn1c(O)c(/C=N/NC(=O)c2cc3ccccc3cc2O)c2ccccc21

>  <CATEGORY LABEL>
t

$$$$
>  <MOLECULE>
Cc1cccc(CS(=O)(=O)c2nnc([C@H](Cc3ccccc3)NC(=O)OC(C)(C)C)o2)c1

>  <CATEGORY LABEL>
f

$$$$
>  <MOLECULE>
O=c1[nH]c(=S)n(-c2ccc(Cl)cc2)c(O)c1C=Nc1ccc(N2CCOCC2)cc1

>  <CATEGORY LABEL>
t

$$$$
>  <MOLECULE>
S=c1[nH]cnc2sc(Nc3ccccc3)nc12

>  <CATEGORY LABEL>
t

$$$$
>  <MOLECULE>
NC(=O)c1c(NC(=O)C2COc3ccccc3O2)sc2c1CCN(Cc1ccccc1)C2 (stereo unspecified)

>  <CATEGORY LABEL>
f

$$$$
>  <MOLECULE>
COc1ccc2c(c1)NP(=S)(Oc1ccccc1)N2 (stereo unspecified)

>  <CATEGORY LABEL>
t

$$$$
>  <MOLECULE>
CCOC(=O)C1=C(C)N=c2s/c(=C\c3cccn3C)c(=O)n2C1c1cccc(OC)c1OC (stereo unspecified)

>  <CATEGORY LABEL>
t

$$$$
>  <MOLECULE>
CNC(=O)c1c(NC(=O)c2ccc(S(=O)(=O)N(C)c3ccccc3)cc2)sc2c1CCN(C(C)C)C2

>  <CATEGORY LABEL>
t

$$$$
>  <MOLECULE>
CCCCn1c(O)c(N=Nc2ccccn2)c2ccccc21

>  <CATEGORY LABEL>
t

$$$$
>  <MOLECULE>
CC1C(=O)NN=C1C(=O)N/N=C\c1ccc(O)cc1O (stereo unspecified)

>  <CATEGORY LABEL>
t

$$$$
>  <MOLECULE>
Nc1ccc2nc(CN3CCOCC3)[nH]c2c1

>  <CATEGORY LABEL>
t

$$$$
>  <MOLECULE>
N#C/C(=C\c1cccc([N+](=O)[O-])c1)c1nnc2n1CCCCC2

>  <CATEGORY LABEL>
f

$$$$
>  <MOLECULE>
CC1(C)CC(=O)C2=C(C1)N=c1s/c(=C/c3ccc(F)c(F)c3)c(=O)n1C2c1ccc(F)cc1 (stereo unspecified)

>  <CATEGORY LABEL>
f

$$$$
>  <MOLECULE>
Cc1oc2c(cc(NS(=O)(=O)c3ccc(C(C)C)cc3)c3ccccc32)c1C(=O)O

>  <CATEGORY LABEL>
t

$$$$
>  <MOLECULE>
Cc1ccc([C@@H]2C3COCC=C3C(C#N)=C(N)C2(C#N)C#N)o1 (stereo partly specified)

>  <CATEGORY LABEL>
f

$$$$
>  <MOLECULE>
O=C(CCCN1C(=O)/C(=C/c2ccccc2Cl)SC1=S)NNC(=O)c1ccc(Cl)cc1

>  <CATEGORY LABEL>
f

$$$$
>  <MOLECULE>
Cn1nc([N+](=O)[O-])c(C(C#N)c2nc3ccccc3n2C)c(Cl)c1=O (stereo unspecified)

>  <CATEGORY LABEL>
t

$$$$
